The values you see were collected from patent US20240246970A1.

Here, each record is paired with measured IC50 data.
tested-system: rat α3β4 nAChR (Rattus norvegicus, UniProt P04757+P12392)
Construct: expressed in transfected cells; host or cells: HEK293 (rα3β4-HEK293, kept under G-416 selection)
Sequence (P04757 26-499): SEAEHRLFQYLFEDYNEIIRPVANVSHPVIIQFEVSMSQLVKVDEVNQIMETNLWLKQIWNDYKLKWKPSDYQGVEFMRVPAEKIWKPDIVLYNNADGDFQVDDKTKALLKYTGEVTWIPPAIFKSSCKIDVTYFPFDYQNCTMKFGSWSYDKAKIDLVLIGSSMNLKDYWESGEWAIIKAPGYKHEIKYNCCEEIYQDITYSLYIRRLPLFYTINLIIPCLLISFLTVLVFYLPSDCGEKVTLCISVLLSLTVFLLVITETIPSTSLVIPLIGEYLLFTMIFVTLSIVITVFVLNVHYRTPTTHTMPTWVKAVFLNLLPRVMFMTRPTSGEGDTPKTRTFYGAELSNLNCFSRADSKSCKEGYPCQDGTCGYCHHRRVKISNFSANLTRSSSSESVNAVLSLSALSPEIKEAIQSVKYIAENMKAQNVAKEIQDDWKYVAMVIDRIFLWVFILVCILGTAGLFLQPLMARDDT
Sequence (P12392 21-495): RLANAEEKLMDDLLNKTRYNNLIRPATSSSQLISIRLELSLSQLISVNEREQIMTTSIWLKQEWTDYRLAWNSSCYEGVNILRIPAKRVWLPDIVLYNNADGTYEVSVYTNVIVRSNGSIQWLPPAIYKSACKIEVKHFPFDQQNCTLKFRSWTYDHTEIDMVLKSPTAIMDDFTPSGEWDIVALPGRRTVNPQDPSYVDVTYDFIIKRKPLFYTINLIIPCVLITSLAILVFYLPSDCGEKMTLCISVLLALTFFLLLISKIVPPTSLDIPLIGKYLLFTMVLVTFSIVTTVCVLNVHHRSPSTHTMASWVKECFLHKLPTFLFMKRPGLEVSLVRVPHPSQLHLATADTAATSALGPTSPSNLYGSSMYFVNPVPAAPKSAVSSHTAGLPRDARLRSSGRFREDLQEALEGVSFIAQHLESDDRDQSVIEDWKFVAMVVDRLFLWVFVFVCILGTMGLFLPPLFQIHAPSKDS
experiment-summary: Calcium influx assay (dual agonist/antagonist, FLIPR calcium 6) in HEK293 cells expressing rat α3β4 nAChR
Assay type: cell-based
measurement-setup: Example 5; α3β4 nAChR; read-out: IC50
Note: unit µM is implicit; provide only the numeric part.

[[record]]
compound = "CCN1C(c2ccc(F)c(C(F)(F)F)c2)C2CC(CC=C2C)C1(C)C (centres unmarked)"
result_number = 0.76


Now look at this one.
Answer with the recorded IC50 for the compound listed here: CC1=CCC2CC1C(c1ccnc3ccccc13)N(C)C2(C)C (centres unmarked) 1.4
